- SUBJECT_OF_TEST: NanoLuc luciferase control (NLUC-HA) (UniProt Q9GV45)
- MEASUREMENT_SETUP: 2'-MOE at 1-5 and 16-20, DNA at 6-15; full PS; all C 5mC; nanoBRET; 100 mM KOAc, 20 mM Tris pH 8.0, 1 mM EDTA, 0.01% NP-40, RT; control protein
pKd: −log10 of the molar value.
MEASURED_PARAMETER: pKd

Looking up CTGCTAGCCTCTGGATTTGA [766633 (2'-MOE 5-10-5 gapmer)] , I found its pKd recorded as < 6.00

====

- SUBJECT_OF_TEST: FUS(375-526)[P525L][R/S in 454-526]-NLUC-HA P525L; all Arg to Ser in 454-526
- MEASUREMENT_SETUP: 2'-F at 1-5 and 16-20, DNA at 6-15; full PS; 5mC at C8, C9, C11; nanoBRET
MEASURED_PARAMETER: pKd
Convention used: pKd is expressed as -log10 of the molar concentration.

GET /value?item= CUGCUAGCCTCTGGAUUUGA [766637 (2'-F 5-10-5 gapmer)] &field=pKd returns 7.42
